Target: Polymerase acidic protein /RNA-directed RNA polymerase catalytic subunit (Influenza A virus (strain A/Wilson-Smith/1933 H1N1), UniProt P03430+P15659)
Experiment: Inhibition of Influenza A virus A/WSN/1933(H1N1) HA-tagged PA/PB1 interaction in HEK293T cells assessed as inhibition of viral growth by competitive ELISA
observable: IC50 (nM)
Numbers only, in nM.

// solved cases for IC50 follow
1) CSCC[C@H](N)C(=O)N[C@@H](CC(=O)O)C(=O)N[C@H](C(=O)N[C@@H](CC(N)=O)C(=O)N1CCC[C@H]1C(=O)N[C@@H](Cc1ccccc1)C(=O)N[C@@H](CC(C)C)C(=O)N[C@@H](CC(C)C)C(=O)N[C@@H](Cc1ccccc1)C(=O)N[C@@H](CC(C)C)C(=O)N[C@@H](CCCCN)C(=O)N[C@H](C(=O)N[C@@H](CCCCN)C(=O)N[C@@H](C)C(=O)N[C@@H](CCC(N)=O)C(=O)O)C(C)C)C(C)C :: 16.6
2) CC[C@H](C)[C@H](NC(=O)[C@@H]1CCCN1C(=O)[C@@H](NC(=O)[C@H](CCCCN)NC(=O)[C@H](CC(C)C)NC(=O)[C@H](Cc1ccccc1)NC(=O)[C@H](CC(C)C)NC(=O)[C@H](CC(C)C)NC(=O)[C@H](Cc1ccccc1)NC(=O)[C@@H]1CCCN1C(=O)[C@H](CC(N)=O)NC(=O)[C@@H](NC(=O)[C@H](CC(=O)O)NC(=O)[C@@H](N)CCSC)C(C)C)C(C)C)C(=O)N[C@@H](CCC(N)=O)C(=O)O :: 21.7
3) CSCC[C@H](N)C(=O)N[C@@H](CC(=O)O)C(=O)N[C@H](C(=O)N[C@@H](CC(N)=O)C(=O)N1CCC[C@H]1C(=O)N[C@@H](Cc1ccccc1)C(=O)N[C@@H](CC(C)C)C(=O)N[C@@H](CC(C)C)C(=O)N[C@@H](Cc1ccccc1)C(=O)N[C@@H](CC(C)C)C(=O)N[C@@H](CCCCN)C(=O)N[C@H](C(=O)N1CCC[C@H]1C(=O)N[C@@H](C)C(=O)N[C@@H](Cc1ccccc1)C(=O)O)C(C)C)C(C)C :: 13.9

For CSCC[C@H](N)C(=O)N[C@@H](CC(=O)O)C(=O)N[C@@H](Cc1ccc(O)cc1)C(=O)N[C@@H](CC(N)=O)C(=O)N1CCC[C@H]1C(=O)N[C@@H](Cc1ccccc1)C(=O)N[C@@H](CC(C)C)C(=O)N[C@@H](CC(C)C)C(=O)N[C@@H](Cc1ccccc1)C(=O)N[C@@H](CC(C)C)C(=O)N[C@@H](CCCCN)C(=O)N[C@H](C(=O)N1CCC[C@H]1C(=O)N[C@@H](C)C(=O)N[C@@H](CCC(N)=O)C(=O)O)C(C)C the compound record lists IC50 as 6.3

All figures here come from ChEMBL document CHEMBL3853272.
